system: collagenase (Homo sapiens, UniProt P03956)
Sequence (P03956 100-469): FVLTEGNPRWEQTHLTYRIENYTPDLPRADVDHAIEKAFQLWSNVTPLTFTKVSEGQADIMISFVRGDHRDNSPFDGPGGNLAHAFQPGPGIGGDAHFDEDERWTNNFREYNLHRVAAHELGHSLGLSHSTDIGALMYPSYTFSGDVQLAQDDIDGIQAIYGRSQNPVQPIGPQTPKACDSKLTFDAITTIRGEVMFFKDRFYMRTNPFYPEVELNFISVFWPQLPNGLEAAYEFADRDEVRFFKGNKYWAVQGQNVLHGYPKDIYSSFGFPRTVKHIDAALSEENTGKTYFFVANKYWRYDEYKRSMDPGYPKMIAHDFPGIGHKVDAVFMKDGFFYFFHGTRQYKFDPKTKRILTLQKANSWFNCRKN
conditionSet: read-out: Collagenase IC50; 37°, 16 hours, pH 7.5
quantity: IC50

- CCOC(=O)CNC(=O)[C@H](CC(C)C)NC(=O)[C@H](CC(C)C)[C@H](CCCCN1C(=O)c2ccccc2C1=O)C(=O)NO: 7 nM

###

Measured IC50 by item
system: collagenase (Homo sapiens)
procedureText: biochemical
quantity: IC50 (nM)

* CC(C)C[C@@H](C(=O)N[C@@H](CC1CCCCC1)C(=O)NCCCN1CCCC1=O)[C@H](O)C(=O)NO [Example 9] | 30
* CNC(=O)[C@H](Cc1ccc(OCC(=O)O)cc1)NC(=O)[C@H](CC(C)C)[C@H](O)C(=O)NO [Example 2] | 30
* CC(C)C[C@@H](C(=O)NC1CCCCCCCCCCNC1=O)[C@H](O)C(=O)NO (some centres unmarked) [Example 5] | 20
* CCOC(=O)[C@H](C)NC(=O)[C@H](CC(C)C)NC(=O)[C@@H](CC(=O)NO)CC(C)C [Example C1, reference compound] | 15
* CNC(=O)[C@@H](NC(=O)[C@H](CC(C)C)[C@H](O)C(=O)NO)c1ccccc1 [Example 3] | 100
* CNC(=O)[C@H](Cc1cccs1)NC(=O)[C@H](CC(C)C)[C@H](O)C(=O)NO [Example 8] | 10
* CNC(=O)[C@H](Cn1cccn1)NC(=O)[C@H](CC(C)C)[C@H](O)C(=O)NO [Example 6] | 30
* CNC(=O)[C@H](CCC(=O)NO)NC(=O)[C@H](CC(C)C)[C@H](O)C(=O)NO [Example 7] | 150

###

procedureText: in vivo
conditionSet: rat, po
quantity: Tmax (min)

- CNC(=O)[C@@H](NC(=O)[C@H](CC(C)C)[C@H](O)C(=O)NO)C(C)(C)C [Example 10]: 30

###

Some molecules, each annotated with its measured log10(IC50).
system: stromelysin (Homo sapiens, UniProt P08254)
Sequence (P08254 100-477): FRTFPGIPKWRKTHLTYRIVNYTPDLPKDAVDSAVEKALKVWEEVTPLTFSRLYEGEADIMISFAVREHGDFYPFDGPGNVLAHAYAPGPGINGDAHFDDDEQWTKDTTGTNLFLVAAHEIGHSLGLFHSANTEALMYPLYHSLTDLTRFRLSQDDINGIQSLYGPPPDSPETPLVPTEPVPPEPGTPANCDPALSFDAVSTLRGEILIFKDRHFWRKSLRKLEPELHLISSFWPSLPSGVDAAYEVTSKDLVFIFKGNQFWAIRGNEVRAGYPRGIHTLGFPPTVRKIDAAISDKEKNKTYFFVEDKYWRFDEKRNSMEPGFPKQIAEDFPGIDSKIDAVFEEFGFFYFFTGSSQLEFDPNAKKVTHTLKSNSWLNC
procedureText: biochemical
quantity: log10(IC50) (log10 of the value in nM)

- CNC(=O)[C@H](Cc1cccs1)NC(=O)[C@H](CC(C)C)[C@H](O)C(=O)NO [Example 8]: 2.00
- CNC(=O)[C@H](CC1CCCCC1)NC(=O)[C@H](CC(C)C)[C@H](O)C(=O)NO [Example 1]: 1.78
- CNC(=O)[C@H](CCC(=O)NO)NC(=O)[C@H](CC(C)C)[C@H](O)C(=O)NO [Example 7]: 2.70
- CNC(=O)[C@H](Cn1cccn1)NC(=O)[C@H](CC(C)C)[C@H](O)C(=O)NO [Example 6]: 3.48
- CCOC(=O)[C@H](C)NC(=O)[C@H](CC(C)C)NC(=O)[C@@H](CC(=O)NO)CC(C)C [Example C1, reference compound]: 2.48
- CNC(=O)[C@H](Cc1ccc(OCC(=O)O)cc1)NC(=O)[C@H](CC(C)C)[C@H](O)C(=O)NO [Example 2]: 2.30

Reference source for all entries: patent US5700838A
